For each record, write down the corresponding Enzyme degradation CDK9 (% remaining) @ 0.1 μM.
target-or-system: CDK9 (Homo sapiens)
Construct: endogenous in cells; host or cells: MDA-MB-231
experimental-details: CDK protein degradation activity (Western blotting), CDK9
Assay type: cell-based
test-settings: MDA-MB-231 cells, 0.1 μM, 16 hours, Western blot
Number only, in %; omit the unit.

Q: Answer with the recorded Enzyme degradation CDK9 (% remaining) @ 0.1 μM for the molecule listed here: Cc1cccc(C(=O)NC2CC(n3cnc4c(NCCC5CCN(CC6CCN(C(=O)COc7cccc8c7C(=O)N([C@H]7CCC(=O)NC7=O)C8=O)CC6)CC5)ncnc43)C2)n1 (stereo partly shown)
Ans: 10

Q: Identify measured Enzyme degradation CDK9 (% remaining) @ 0.1 μM associated with O=C1CC[C@H](N2C(=O)c3cccc(N4CCC(CN5CCN(c6ccc(Nc7ncnc8c7ncn8C7CC(NC(=O)Cc8ccccc8)C7)cc6)CC5)CC4)c3C2=O)C(=O)N1 (stereo partly shown)
Ans: 10

Q: Return Enzyme degradation CDK9 (% remaining) @ 0.1 μM for the following molecule: Cc1cccc(C(=O)N[C@H]2C[C@H](n3cnc4c(NCCCN5CCN(C(=O)CNc6ccc7c(c6)C(=O)N([C@@H]6CCC(=O)NC6=O)C7=O)CC5)ncnc43)C2)n1
Ans: 90

Q: Provide only the value of recorded Enzyme degradation CDK9 (% remaining) @ 0.1 μM for O=C1CCN(c2coc3cc(C(=O)NC[C@H]4CC[C@H](CN5CCN(c6ccc(Nc7ncnc8c7ncn8[C@H]7C[C@@H](NC(=O)Cc8ccccc8)C7)cc6)CC5)CC4)ccc23)C(=O)N1
Ans: 20

Q: Item Cc1cccc(C(=O)NC2CC(n3cnc4c(NCc5cccc(N6CCN(C(=O)COc7cccc8c7C(=O)N([C@H]7CCC(=O)NC7=O)C8=O)CC6)c5)ncnc43)C2)n1 (stereo partly shown) : provide Enzyme degradation CDK9 (% remaining) @ 0.1 μM
Ans: 90

Q: State its Enzyme degradation CDK9 (% remaining) @ 0.1 μM: Cc1cccc(C(=O)NC2CC(n3cnc4c(Nc5ccc(N6CCN(C(=O)COc7ccc8c(c7)C(=O)N([C@H]7CCC(=O)NC7=O)C8=O)CC6)cc5)ncnc43)C2)n1 (stereo partly shown)
Ans: 70

----------
target-or-system: CDK9 (Homo sapiens, UniProt P50750)
Construct: endogenous in cells; host or cells: MDA-MB-231
Sequence (P50750 whole entry): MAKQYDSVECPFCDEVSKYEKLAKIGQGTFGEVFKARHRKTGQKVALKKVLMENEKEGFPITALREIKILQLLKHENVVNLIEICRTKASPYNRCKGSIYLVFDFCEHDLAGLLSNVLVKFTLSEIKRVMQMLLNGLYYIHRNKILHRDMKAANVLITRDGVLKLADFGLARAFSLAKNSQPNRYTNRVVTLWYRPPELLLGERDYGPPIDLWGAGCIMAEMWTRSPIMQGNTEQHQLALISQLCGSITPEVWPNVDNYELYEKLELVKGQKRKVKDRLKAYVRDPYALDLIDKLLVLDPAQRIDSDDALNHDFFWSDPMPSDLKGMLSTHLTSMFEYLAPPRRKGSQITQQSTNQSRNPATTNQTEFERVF
experimental-details: CDK protein degradation activity (Western blotting), CDK9
Format: cell-based
test-settings: MDA-MB-231 cells, 10 μM, 16 hours, Western blot
measured-attribute: Enzyme degradation CDK9 (% remaining) @ 10 μM (%)
The response must be a number in % with no trailing unit.

Q: Report Enzyme degradation CDK9 (% remaining) @ 10 μM, nothing else, for this molecule: O=C1CC[C@H](n2nnc3ccc(N4CCC(N5CCN(c6ccc(Nc7ncnc8c7ncn8[C@H]7C[C@@H](NC(=O)Cc8ccccc8)C7)cc6)CC5)CC4)cc3c2=O)C(=O)N1 [Compound 334]
Ans: 10

Q: Retrieve Enzyme degradation CDK9 (% remaining) @ 10 μM measured for O=C1CC[C@H](N2C(=O)C=C(Nc3cccc(CC(=O)N4CCC5(CC4)CC(N4CCN(c6ccc(Nc7ncnc8c7ncn8[C@H]7C[C@@H](NC(=O)Cc8ccccc8)C7)cc6)CC4)C5)c3)C2=O)C(=O)N1 [Compound 192] and print it.
Ans: 10

Q: # return recorded Enzyme degradation CDK9 (% remaining) @ 10 μM for input O=C1CC[C@H](N2C(=O)c3ccc(NCC(=O)N4CCC(CN5CCN(c6ccc(Nc7ncnc8c7ncn8C7CC(NC(=O)Cc8ccccc8)C7)cc6)CC5)CC4)cc3C2=O)C(=O)N1 (stereo partly shown) [Compound 177]
Ans: 0

Q: Report Enzyme degradation CDK9 (% remaining) @ 10 μM for Cc1cccc(C(=O)NC2CC(n3cnc4c(NCCCN5CCN(C(=O)CNc6cccc7c6C(=O)N([C@@H]6CCC(=O)NC6=O)C7=O)CC5)ncnc43)C2)n1 (stereo partly shown) [Compound 139]
Ans: 70

Q: # return recorded Enzyme degradation CDK9 (% remaining) @ 10 μM for entry O=C1CC[C@H](N2C(=O)c3ccc(NCC(=O)N4CCC(OCCN5CCN(c6ccc(Nc7ncnc8c7ncn8[C@H]7C[C@@H](NC(=O)Cc8ccccc8)C7)cc6)CC5)CC4)cc3C2=O)C(=O)N1 [Compound 248]
Ans: 0

Q: Give me measured Enzyme degradation CDK9 (% remaining) @ 10 μM, please, for this molecule: O=C1CC[C@H](N2C(=O)c3ccc(N4CCC(C(=O)N5CCN(C6CC7(CCN(c8ccc(Nc9ncnc%10c9ncn%10[C@H]9C[C@@H](NC(=O)Cc%10ccccc%10)C9)cc8)CC7)C6)CC5)CC4)cc3C2=O)C(=O)N1 [Compound 361]
Ans: 10

----------
target-or-system: CDK9 (Homo sapiens)
Construct: endogenous in cells; host or cells: MDA-MB-231
experimental-details: CDK protein degradation activity (Western blotting), CDK9
Assay type: cell-based
test-settings: MDA-MB-231 cells, 0.1 μM, 16 hours, Western blot
Hi there, I'd appreciate the recorded Enzyme degradation CDK9 (% remaining) @ 0.1 μM for every entry that follows.

Q: Using the record for O=C1CC[C@H](N2C(=O)c3ccc(N4CCC(CC(=O)N5CCN(c6ccc(Nc7ncnc8c7ncn8[C@H]7C[C@@H](NC(=O)Cc8ccccc8)C7)cc6)CC5)CC4)cc3C2=O)C(=O)N1 , state its measured Enzyme degradation CDK9 (% remaining) @ 0.1 μM.
Ans: 50/50/50%

Q: Answer with the recorded Enzyme degradation CDK9 (% remaining) @ 0.1 μM for the molecule listed here: O=C1CC[C@H](N2C(=O)c3ccc(N4CCC(CN5CCN(c6ccc(Nc7ncnc8c7ncn8C7CC(NC(=O)c8c(Cl)cccc8Cl)C7)cc6)CC5)CC4)cc3C2=O)C(=O)N1 (stereo partly shown)
Ans: 0/0/0%

Q: Note Enzyme degradation CDK9 (% remaining) @ 0.1 μM for the molecule shown: O=C1CC[C@H](N2C(=O)c3ccc(OCC(=O)N4CCC(CCCN5CCN(c6ccc(Nc7ncnc8c7ncn8[C@H]7C[C@@H](NC(=O)Cc8ccccc8)C7)cc6)CC5)CC4)cc3C2=O)C(=O)N1
Ans: 60%

Q: Query Enzyme degradation CDK9 (% remaining) @ 0.1 μM for O=C1CC[C@H](N2C(=O)c3cccc(NCC(=O)N4CCC(CN5CCC(CNc6ncnc7c6ncn7[C@H]6C[C@@H](NC(=O)c7c(Cl)cccc7Cl)C6)CC5)CC4)c3C2=O)C(=O)N1
Ans: 10%

Q: Give reported Enzyme degradation CDK9 (% remaining) @ 0.1 μM value for O=C1CC[C@H](n2nnc3ccc(N4CCC(CN5CCC(CCNc6ncnc7c6ncn7C6CC(NC(=O)Cc7ccccc7)C6)CC5)CC4)cc3c2=O)C(=O)N1 (stereo partly shown)
Ans: 30%

Q: Item Cc1cccc(C(=O)N[C@H]2C[C@@H](n3cnc4c(NCc5ccc(OCCCN6CCN(C(=O)COc7ccc8c(c7)C(=O)N([C@H]7CCC(=O)NC7=O)C8=O)CC6)cc5)ncnc43)C2)n1 : provide Enzyme degradation CDK9 (% remaining) @ 0.1 μM
Ans: 100%

Q: Using known records, supply Enzyme degradation CDK9 (% remaining) @ 0.1 μM for O=C1CC[C@@H](c2cccc(OCC(=O)N3CCC4(CC3)CC(N3CCC(c5ccc(Nc6ncnc7c6ncn7C6CC(NC(=O)Cc7ccccc7)C6)cc5)CC3)C4)c2)C(=O)N1 (stereo partly shown)
Ans: 0/0/0%

Q: Fill in reported Enzyme degradation CDK9 (% remaining) @ 0.1 μM for this entry: Cc1cccc(C(=O)NC2CC(n3cnc4c(NCCCN5CCN(CC6CCN(C(=O)COc7cccc8c7C(=O)N([C@@H]7CCC(=O)NC7=O)C8=O)CC6)CC5)ncnc43)C2)n1 (stereo partly shown)
Ans: 70%

Q: Check the records and state Enzyme degradation CDK9 (% remaining) @ 0.1 μM for O=C1CC[C@H](N2C(=O)c3ccc(OCC(=O)N4CCC5(CC4)CC(N4CCC(c6ccc(Nc7ncnc8c7ncn8[C@H]7C[C@@H](NC(=O)Cc8ccccc8)C7)cc6)CC4)C5)cc3C2=O)C(=O)N1
Ans: 0/0/0%

Q: Quickly give me recorded Enzyme degradation CDK9 (% remaining) @ 0.1 μM for O=C1CC[C@H](N2C(=O)c3cccc(OCC(=O)N4CCN(CC5CCN(c6ccc(Nc7ncnc8c7ncn8C7CC(NC(=O)Cc8ccccc8)C7)cc6)CC5)CC4)c3C2=O)C(=O)N1 (stereo partly shown)
Ans: 80%

----------
target-or-system: CDK9 (Homo sapiens, UniProt P50750)
Construct: endogenous in cells; host or cells: MDA-MB-231
experimental-details: CDK protein degradation activity (Western blotting), CDK9
Format: cell-based
test-settings: MDA-MB-231 cells, 1 μM, 16 hours, Western blot
Record form. Attribute: Enzyme degradation CDK9 (% remaining) @ 1 μM. Fill in for each entry.
Numeric only. Scale: %

Q: State its Enzyme degradation CDK9 (% remaining) @ 1 μM for this compound: Cc1cccc(C(=O)N[C@H]2C[C@H](n3cnc4c(NCC5CCN(C(=O)CCCCCNc6ccc7c(c6)C(=O)N([C@@H]6CCC(=O)NC6=O)C7=O)CC5)ncnc43)C2)n1
Ans: 10

Q: State, in one line, measured Enzyme degradation CDK9 (% remaining) @ 1 μM of O=C1CCC(N2C(=O)c3cccc(N4CCC(CN5CCC(CNc6ncnc7c6ncn7[C@H]6C[C@@H](NC(=O)Cc7ccccc7)C6)CC5)CC4)c3C2=O)C(=O)N1 (some centres unmarked)
Ans: 80
